Reported T₁ changed by (repeat measurement) values for the following compounds.
Assay: Paramagnetic relaxation properties in human plasma at 37°C
Type: physicochemical
Conditions: 37°C, repeat measurement 80 minutes later
Give a bare numeral; the unit % is implied.

Previously resolved entries follow.
T₁ changed by (repeat measurement) in this record for `N[C@@H](CS)C(=O)O.N[C@@H](CS)C(=O)O.O.O.[Cl-].[Cl-].[Mn+2]` : 4

T₁ changed by (repeat measurement) in this record for `NCC(=O)O.NCC(=O)O.O.O.[Cl-].[Cl-].[Mn+2]` : 2

Continuing:
T₁ changed by (repeat measurement) in this record for `CC(C)[C@H](N)C(=O)O.CC(C)[C@H](N)C(=O)O.O.O.[Cl-].[Cl-].[Mn+2]` : 4

T₁ changed by (repeat measurement) in this record for `NC(=O)CC[C@H](N)C(=O)O.NC(=O)CC[C@H](N)C(=O)O.O.O.[Cl-].[Cl-].[Mn+2]` : 5

T₁ changed by (repeat measurement) in this record for `C[C@H](N)C(=O)O.C[C@H](N)C(=O)O.O.O.[Cl-].[Cl-].[Mn+2]` : 3

T₁ changed by (repeat measurement) in this record for `N=C(N)NCCC[C@H](N)C(=O)O.N=C(N)NCCC[C@H](N)C(=O)O.O.O.[Cl-].[Cl-].[Mn+2]` : 8

T₁ changed by (repeat measurement) in this record for `N[C@@H](CO)C(=O)O.N[C@@H](CO)C(=O)O.O.O.[Cl-].[Cl-].[Mn+2]` : 3

T₁ changed by (repeat measurement) in this record for `O.O.O=C(O)[C@@H]1CCCN1.O=C(O)[C@@H]1CCCN1.[Cl-].[Cl-].[Mn+2]` : 5

T₁ changed by (repeat measurement) in this record for `C[NH2+]CC(=O)[O-].C[NH2+]CC(=O)[O-].O.O.[Cl-].[Cl-].[Mn+2]` : 6

Values were extracted from patent EP0308983A2.
